Test system: Hepatotoxicity;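 further: combined hepatic side effect score as listed in the training data of the Drug Induced Liver Injury Prediction System (DILIps)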
Below: a set of entries, each annotated with reported HepSE_Combined Scores.

As a guide, the following entries are already answered.
CC(=O)CCCCn1c(=O)c2c(ncn2C)n(C)c1=O : 3
COC1=CC(=O)C[C@@H](C)[C@]12Oc1c(Cl)c(OC)cc(OC)c1C2=O : 0
Cc1ccc(Cl)c(Nc2ccccc2C(=O)O)c1Cl : 1

The compound CC(C)(C)NC(=O)[C@@H]1CN(Cc2cccnc2)CCN1C[C@@H](O)C[C@@H](Cc1ccccc1)C(=O)N[C@H]1c2ccccc2C[C@H]1O.O , tested on Hepatotoxicity, showed HepSE_Combined Scores of 4

The compound C=CC(N)CCC(=O)O (stereo not given) , tested on Hepatotoxicity, showed HepSE_Combined Scores of 0
